tested on: Bacillus cereus; test: Antimicrobial activity against Bacillus cereus incubated for 24 hrs by disc diffusion assay; format: functional; note: test concentration or dose not given here
Attribute Measured: diameter of the inhibition zone (DIZ) (mm)

[[record]]
compound = "CCOC(=O)c1c(N/N=C2\\C(=O)NN=C2C)sc2c1CCC2"
unit_annotation = "mm"
relational_operator = "<"
readout_number = 2

[[record]]
compound = "CCOC(=O)c1c(NN=C(C(C)=O)C(C)=O)sc2c1CCCCC2"
unit_annotation = "mm"
relational_operator = "="
readout_number = 14

[[record]]
compound = "CCOC(=O)/C(=N/Nc1sc2c(c1C(=O)OCC)CCCCC2)C(C)=O"
unit_annotation = "mm"
relational_operator = "="
readout_number = 24

[[record]]
compound = "CCOC(=O)c1c(NN=C(C(C)=O)C(C)=O)sc2c1CCC2"
unit_annotation = "mm"
relational_operator = "="
readout_number = 26

[[record]]
compound = "CC(=O)C1(C(C)=O)N=Nc2sc3c(c2C1=O)CCCCC3"
unit_annotation = "mm"
relational_operator = "="
readout_number = 7

[[record]]
compound = "CC(=O)C1(C(=O)c2ccccc2)N=Nc2sc3c(c2C1=O)CCCCC3 (stereo unspecified)"
unit_annotation = "mm"
relational_operator = "="
readout_number = 16

[[record]]
compound = "CCOC(=O)c1c(-n2cnnn2)sc2c1CCCCC2"
unit_annotation = "mm"
relational_operator = "="
readout_number = 9

[[record]]
compound = "CCOC(=O)/C(C#N)=N/Nc1sc2c(c1C(=O)OCC)CCCCC2"
unit_annotation = "mm"
relational_operator = "="
readout_number = 5

[[record]]
compound = "Nc1nc2sc3c(c2c(=O)n1N)CCCCC3"
unit_annotation = "mm"
relational_operator = "="
readout_number = 17

[[record]]
compound = "CCOC(=O)/C(C#N)=N/Nc1sc2c(c1C(=O)OCC)CCC2"
unit_annotation = "mm"
relational_operator = "="
readout_number = 7

[[record]]
compound = "CCOC(=O)c1c(NC(=O)CC(C)=O)sc2c1CCCCC2"
unit_annotation = "mm"
relational_operator = "<"
readout_number = 2

